Several reports have described IC50 for Beta-secretase 1 (Homo sapiens, UniProt P56817); a selection of those results is presented here.

{"columns": ["Compound", "IC50"],
 "data": [
  ["CCn1cc(C2(c3cccc(-c4cncc(Cl)c4)c3)N=C(N)N(C)C2=O)cn1 (stereo not drawn)", "10 to 100 nM"],
  ["CCn1cc(C2(c3cccc(-c4cccnc4F)c3)N=C(N)N(C)C2=O)cc1C(=O)C1CCCCC1 (stereo not drawn)", "10 to 100 nM"],
  ["CC(C)OC[C@H]1C[C@H]2[C@@H](C)SC(N)=N[C@@]2(c2ccc(F)cc2F)CO1", "718 nM"],
  ["CN1C(=O)C(c2ccc(F)c(-c3cccnc3F)c2)(c2cnn(CC(F)(F)F)c2)N=C1N (stereo not drawn)", "110 to 1000 nM"],
  ["CN1C(=O)C(c2cccc(-c3cccnc3)c2)(c2cnn(CC(F)(F)F)c2)N=C1N (stereo not drawn)", "110 to 1000 nM"],
  ["CCn1cc([C@]2(c3cccc(-c4cccnc4F)c3)N=C(N)N(C)C2=O)cc1C(=O)C1CC1", "10 to 100 nM"],
  ["CN1C(=O)C(c2cccc(-c3cccnc3F)c2)(c2cc(C#N)n(CCF)c2)N=C1N (stereo not drawn)", "10 to 100 nM"],
  ["Cc1ccccc1-c1ccc2nc(N)c(COc3cc(C(F)(F)F)ncn3)cc2c1", "100 to 1000 nM"],
  ["CCn1cc(C2(c3cccc(-c4cccnc4F)c3)N=C(N)N(C)C2=O)cc1C(=O)N(C)C (stereo not drawn)", "110 to 1000 nM"]
]}
